Target: Polyunsaturated fatty acid lipoxygenase ALOX12 (Homo sapiens) (UniProt P18054)
Sequence (P18054 whole entry, looked up): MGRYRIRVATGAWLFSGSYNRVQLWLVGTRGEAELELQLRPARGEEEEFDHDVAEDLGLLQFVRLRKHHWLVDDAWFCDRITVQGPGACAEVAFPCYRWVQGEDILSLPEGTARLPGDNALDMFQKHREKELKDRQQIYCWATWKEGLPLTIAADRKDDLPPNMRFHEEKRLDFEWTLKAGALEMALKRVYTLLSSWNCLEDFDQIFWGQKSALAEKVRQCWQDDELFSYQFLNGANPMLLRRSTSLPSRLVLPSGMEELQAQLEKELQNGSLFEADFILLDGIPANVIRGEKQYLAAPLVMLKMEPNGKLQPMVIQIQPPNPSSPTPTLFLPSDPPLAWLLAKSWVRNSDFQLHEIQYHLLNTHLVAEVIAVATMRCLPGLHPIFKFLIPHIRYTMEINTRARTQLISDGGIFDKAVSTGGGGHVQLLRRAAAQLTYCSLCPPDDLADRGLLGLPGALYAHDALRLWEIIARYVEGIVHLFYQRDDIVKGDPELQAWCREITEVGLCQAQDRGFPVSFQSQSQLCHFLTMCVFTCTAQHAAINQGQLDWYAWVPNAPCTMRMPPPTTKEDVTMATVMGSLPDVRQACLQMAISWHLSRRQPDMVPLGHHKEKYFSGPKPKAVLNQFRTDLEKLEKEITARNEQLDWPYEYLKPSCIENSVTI
Assay: qHTS Assay for Inhibitors of 12-hLO (12-human lipoxygenase); further: nearly all actives have a fitted effect of over 55% in size
Conditions: purified 12-hLO, xylenol orange hydroperoxide absorbance; series mostly up to 57.1 µM
Hit rate of the full screen: of about 150,000 compounds, about 190 (0.13%) were called active. Not shown: some 2% with an inconclusive outcome. This is one part of a sample in which actives are shown more often than they occur.

cpd smiles	activity change, negative = inhibition
CCCCC[C@H](O)/C=C/[C@@H]1[C@@H](CC(=O)CCC(=O)O)[C@@H](O)C[C@H]1O	inactive
CCCC(=O)Nc1ccc(C(=O)N/N=C/c2ccc[nH]2)cc1	inactive
CCc1nnc(NC(=O)CCN(c2ccc(C)cc2)S(=O)(=O)c2ccccc2)s1	inactive
